Test: Behavioural toxicity in po dosed albino Sprague-Dawley rat
Conditions: in vivo
ATTRIBUTE MEASURED: TD50

Data request: Quick one: TD50 of `O=C1NC(=O)C(c2ccccc2)(c2ccccc2)N1` ?
Data returned: > 1000 mg/kg

----------
Assay: Neurotoxicity in ip dosed albino Carworth Farms No. 1 mouse measured at 0.5 hrs by rotarod test
Format: toxicity, organism-based
Conditions: Carworth Farms No. 1, mouse, in vivo
ATTRIBUTE MEASURED: TD50 at 0.5 h

Data request: Could you share which TD50 at 0.5 h value was measured for `COC[C@@H](NC(C)=O)C(=O)NCc1ccc(Oc2ccccc2)cc1` ?
Data returned: < 100 mg/kg
